Listed here are molecules together with their documented pKi.
TEST_TARGET: ACE (Sigma, A2580) (Sus scrofa)
Construct: ACE from porcine kidney; purchased Sigma A2580; host or cells: porcine kidney
Sequence (F1RRW5 34-1309): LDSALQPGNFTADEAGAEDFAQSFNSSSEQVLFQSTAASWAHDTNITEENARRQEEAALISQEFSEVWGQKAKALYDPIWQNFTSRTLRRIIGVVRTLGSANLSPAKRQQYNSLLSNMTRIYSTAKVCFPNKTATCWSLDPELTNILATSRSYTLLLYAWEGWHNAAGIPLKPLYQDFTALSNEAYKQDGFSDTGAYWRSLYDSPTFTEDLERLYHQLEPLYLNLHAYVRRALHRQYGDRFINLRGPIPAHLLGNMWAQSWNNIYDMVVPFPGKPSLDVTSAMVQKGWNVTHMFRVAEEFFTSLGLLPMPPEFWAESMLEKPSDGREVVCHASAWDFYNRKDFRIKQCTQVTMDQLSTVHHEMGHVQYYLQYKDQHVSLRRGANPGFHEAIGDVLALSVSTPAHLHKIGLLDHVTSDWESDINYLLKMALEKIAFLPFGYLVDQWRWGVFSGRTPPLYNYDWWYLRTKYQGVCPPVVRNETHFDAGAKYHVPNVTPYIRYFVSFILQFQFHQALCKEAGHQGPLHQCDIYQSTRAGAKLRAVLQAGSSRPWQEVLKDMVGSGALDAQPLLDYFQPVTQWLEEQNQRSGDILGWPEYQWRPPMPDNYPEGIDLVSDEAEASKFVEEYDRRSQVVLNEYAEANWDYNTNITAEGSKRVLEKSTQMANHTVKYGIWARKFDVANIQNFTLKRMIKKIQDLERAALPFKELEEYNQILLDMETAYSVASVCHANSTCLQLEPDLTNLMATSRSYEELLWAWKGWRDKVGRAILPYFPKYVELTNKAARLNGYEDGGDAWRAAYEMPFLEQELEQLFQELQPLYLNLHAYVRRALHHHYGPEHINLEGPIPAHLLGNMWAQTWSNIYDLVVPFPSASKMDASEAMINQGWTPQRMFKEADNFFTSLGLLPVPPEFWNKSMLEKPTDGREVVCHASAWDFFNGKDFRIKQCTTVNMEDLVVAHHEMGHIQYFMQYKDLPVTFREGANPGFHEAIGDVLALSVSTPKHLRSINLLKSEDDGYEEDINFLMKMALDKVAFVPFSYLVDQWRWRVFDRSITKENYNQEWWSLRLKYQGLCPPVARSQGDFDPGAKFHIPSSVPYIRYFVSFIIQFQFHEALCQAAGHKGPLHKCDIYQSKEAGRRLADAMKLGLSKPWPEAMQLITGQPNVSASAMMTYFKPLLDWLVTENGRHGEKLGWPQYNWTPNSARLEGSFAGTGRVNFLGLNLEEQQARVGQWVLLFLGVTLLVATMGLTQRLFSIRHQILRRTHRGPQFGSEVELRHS
PROTOCOL_TEXT: ACE enzymatic activity assay
Type: biochemical, porcine
STUDY_CONDITIONS: Ki class; compounds tested in 5% DMSO, 12 compound concentrations
pKi: −log10 of the molar value.

Examples from the recorded data:
[
  {
    "MOLECULE": "CC(C)CC(N[C@@H](Cc1cncn1Cc1ccc(C(C)(C)C)cc1)C(=O)O)C(=O)O (single isomer, unassigned) [HY]",
    "RECORDED_VALUE": "> 5.00"
  },
  {
    "MOLECULE": "CC(C)CC(N[C@@H](Cc1cncn1Cc1ccc(Cl)c(Cl)c1)C(=O)O)C(=O)O (single isomer, unassigned) [GW]",
    "RECORDED_VALUE": "4.30 to 5.00"
  },
  {
    "MOLECULE": "CC(C)CC(N[C@@H](Cc1cncn1Cc1cc(Cl)cc(Cl)c1)C(=O)O)C(=O)O (single isomer, unassigned) [HE]",
    "RECORDED_VALUE": "4.30 to 5.00"
  },
  {
    "MOLECULE": "CC(C)CC(N[C@@H](Cc1cncn1Cc1ccc(C#N)cc1)C(=O)O)C(=O)O (single isomer, unassigned) [HA]",
    "RECORDED_VALUE": "4.30 to 5.00"
  },
  {
    "MOLECULE": "Cc1ccc(Cn2cncc2C[C@H](NC(CC(C)C)C(=O)O)C(=O)O)cc1 (single isomer, unassigned) [HG]",
    "RECORDED_VALUE": "4.30 to 5.00"
  },
  {
    "MOLECULE": "CC(C)CC(N[C@@H](Cc1cncn1Cc1ccc(C(C)C)cc1)C(=O)O)C(=O)O (single isomer, unassigned) [HU]",
    "RECORDED_VALUE": "> 5.00"
  }
]

# ---- query molecule ----
[in] Request - read-out pKi | tested on ACE (Sigma, A2580) (Sus scrofa) | molecule Cc1ccc(Cn2cncc2C[C@H](NC(CC(C)C)C(=O)O)C(=O)O)cc1C (single isomer, unassigned) [HK]
[out] 4.30 to 5.00

###

TEST_TARGET: Carboxypeptidase A (Bos taurus)
Sequence (P00730 111-419): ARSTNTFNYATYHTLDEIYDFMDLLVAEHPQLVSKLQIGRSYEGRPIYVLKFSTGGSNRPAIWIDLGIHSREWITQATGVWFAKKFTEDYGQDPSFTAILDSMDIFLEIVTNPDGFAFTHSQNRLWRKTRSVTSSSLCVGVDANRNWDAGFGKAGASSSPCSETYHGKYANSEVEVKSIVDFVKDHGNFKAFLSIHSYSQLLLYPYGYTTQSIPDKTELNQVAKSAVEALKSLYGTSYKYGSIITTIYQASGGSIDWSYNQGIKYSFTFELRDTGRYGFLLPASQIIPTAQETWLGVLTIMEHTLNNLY
PROTOCOL_TEXT: Carboxypeptidase A activity assay
Assay type: biochemical
STUDY_CONDITIONS: Ki class; compounds tested in 5% DMSO, 12 concentrations
pKi: −log10 of the molar value.
Listed here are compounds together with their documented pKi.

Examples from the recorded data:
[
  {
    "COMPOUND": "NCCCC[C@H](NC(CCc1ccccc1)C(=O)O)C(=O)O (some centres unmarked)",
    "pKi": "< 4.30"
  },
  {
    "COMPOUND": "O=C(O)[C@H](CC#Cc1ccccn1)N[C@H](CCc1ccccc1)C(=O)O",
    "pKi": "4.30 to 5.00"
  },
  {
    "COMPOUND": "CC(C)(C)C[C@H](N[C@@H](CCc1ccccc1)C(=O)O)C(=O)O",
    "pKi": "< 4.30"
  },
  {
    "COMPOUND": "CC(C)CC(N[C@@H](Cc1cn(Cc2ccccc2)cn1)C(=O)O)C(=O)O (some centres unmarked) [BV]",
    "pKi": "> 5.00"
  },
  {
    "COMPOUND": "CC(C)CC(N[C@@H](Cc1cncn1COCc1ccccc1)C(=O)O)C(=O)O (single isomer, unassigned) [EO]",
    "pKi": "< 4.30"
  },
  {
    "COMPOUND": "CC(C)CCNC(CCc1ccccc1)C(=O)O (centres unmarked)",
    "pKi": "4.30 to 5.00"
  }
]

[in] Fill in the blank: the reported pKi of CC(C)CC(N[C@H](CO)Cc1c[nH]cn1)C(=O)O (single isomer, unassigned) [FO] is ____.
[out] < 4.30

[in] Fill in the blank: the reported pKi of CCC(N[C@@H](Cc1c[nH]cn1)C(=O)O)C(=O)O (some centres unmarked) is ____.
[out] < 4.30

[in] Fill in the blank: the reported pKi of `COC(=O)[C@H](CC(C)C)NCC(=O)c1ccc(-c2ccccc2)cc1` is ____.
[out] < 4.30

[in] Fill in the blank: the reported pKi of `CC(C)(C)C[C@H](N[C@@H](C(=O)O)c1ccccc1)C(=O)O` is ____.
[out] < 4.30

[in] Fill in the blank: the reported pKi of CCCC(N[C@@H](CCSC)C(=O)O)C(=O)O (stereo in doubt) is ____.
[out] < 4.30

[in] Fill in the blank: the reported pKi of CC(C)CC(N[C@H](CCc1ccccc1)CC(=O)O)C(=O)O (some centres unmarked) is ____.
[out] < 4.30

[in] Fill in the blank: the reported pKi of CC(C)CC(N[C@@H](Cc1cncn1Cc1ccc(C(F)(F)F)cc1)C(=O)O)C(=O)O (some centres unmarked) [GI] is ____.
[out] 4.30 to 5.00

###

TEST_TARGET: UniProt:Q5EGZ1
Sequence (Q5EGZ1 18-805): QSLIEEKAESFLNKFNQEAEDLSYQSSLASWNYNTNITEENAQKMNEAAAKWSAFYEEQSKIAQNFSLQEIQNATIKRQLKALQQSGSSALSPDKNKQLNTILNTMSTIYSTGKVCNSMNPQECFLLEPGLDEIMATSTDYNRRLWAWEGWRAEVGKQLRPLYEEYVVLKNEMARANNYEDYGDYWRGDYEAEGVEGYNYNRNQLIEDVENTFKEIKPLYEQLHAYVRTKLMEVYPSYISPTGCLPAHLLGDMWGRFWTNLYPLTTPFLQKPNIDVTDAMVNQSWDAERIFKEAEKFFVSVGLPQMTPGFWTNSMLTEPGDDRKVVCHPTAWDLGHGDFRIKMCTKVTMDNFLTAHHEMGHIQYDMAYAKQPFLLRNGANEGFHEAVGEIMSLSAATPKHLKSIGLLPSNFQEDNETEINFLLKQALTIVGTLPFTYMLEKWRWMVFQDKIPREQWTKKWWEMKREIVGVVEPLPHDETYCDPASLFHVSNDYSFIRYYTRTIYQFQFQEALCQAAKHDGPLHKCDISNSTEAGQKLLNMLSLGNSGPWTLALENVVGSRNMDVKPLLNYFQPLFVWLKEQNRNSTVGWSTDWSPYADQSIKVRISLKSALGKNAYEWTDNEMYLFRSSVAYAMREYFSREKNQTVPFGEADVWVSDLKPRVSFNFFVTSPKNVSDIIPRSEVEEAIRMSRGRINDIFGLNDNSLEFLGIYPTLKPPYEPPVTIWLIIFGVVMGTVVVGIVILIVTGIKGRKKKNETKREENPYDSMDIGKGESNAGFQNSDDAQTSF
PROTOCOL_TEXT: ACE-2 Competitive Substrate Assay, rat ACE-2
Assay type: biochemical
STUDY_CONDITIONS: Ki class; compounds tested in 5% DMSO, 12 concentrations
MEASURED_PARAMETER: Ki

Examples from the recorded data:
[
  {
    "COMPOUND": "O=C(O)[C@H](CCc1ccccc1)N[C@@H](CC1CC1)C(=O)O",
    "RECORDED_VALUE": "100 to 500 nM"
  },
  {
    "COMPOUND": "CC(C)C[C@@H](N[C@H](C(=O)O)c1ccccc1)C(=O)O",
    "RECORDED_VALUE": "> 500 nM"
  },
  {
    "COMPOUND": "COC(=O)[C@H](Cc1c[nH]cn1)NC(CC(C)C)C(=O)O (single isomer, unassigned) [CU]",
    "RECORDED_VALUE": "100 to 500 nM"
  },
  {
    "COMPOUND": "CCCCC(N[C@@H](Cc1cncn1Cc1ccccc1)C(=O)O)C(=O)O (single isomer, unassigned) [FY]",
    "RECORDED_VALUE": "< 100 nM"
  },
  {
    "COMPOUND": "O=C(O)C(Cc1ccc(O)cc1)N[C@@H](Cc1c[nH]cn1)C(=O)O (single isomer, unassigned) [DO]",
    "RECORDED_VALUE": "100 to 500 nM"
  },
  {
    "COMPOUND": "CC(C)[C@H](NC(CCc1ccccc1)C(=O)O)C(=O)O (stereo partly shown)",
    "RECORDED_VALUE": "> 500 nM"
  },
  {
    "COMPOUND": "CCC(C)C(NC(Cc1cncn1Cc1ccccc1)C(=O)O)C(=O)O (single isomer, unassigned) [GD]",
    "RECORDED_VALUE": "> 500 nM"
  },
  {
    "COMPOUND": "CC(C)CC(N[C@@H](Cc1cn(Cc2ccc(C(F)(F)F)cc2)cn1)C(=O)O)C(=O)O (stereo partly shown)",
    "RECORDED_VALUE": "100 to 500 nM"
  }
]

[in] Request - read-out Ki | tested on UniProt:Q5EGZ1 | compound `CCCCCC[C@H](N[C@H](Cc1c[nH]cn1)C(=O)O)C(=O)O`
[out] > 500 nM

[in] Request - read-out Ki | tested on UniProt:Q5EGZ1 | compound CC(C)CC(N[C@@H](Cc1c[nH]cn1)C(=O)O)C(=O)O (single isomer, unassigned) [BL]
[out] > 500 nM

[in] Request - read-out Ki | tested on UniProt:Q5EGZ1 | compound CC(C)C[C@H](NC(CN(C)c1ccccc1)C(=O)O)C(=O)O (stereo partly shown)
[out] 100 to 500 nM

[in] Request - read-out Ki | tested on UniProt:Q5EGZ1 | compound CC(C)CC(N[C@@H](Cc1nc[nH]n1)C(=O)O)C(=O)O (stereo partly shown)
[out] 100 to 500 nM

[in] Request - read-out Ki | tested on UniProt:Q5EGZ1 | compound O=C(O)C(Cc1ccccc1)N[C@@H](Cc1cncn1Cc1ccccc1)C(=O)O (single isomer, unassigned)
[out] 100 to 500 nM
